Cited source for all entries: PubChem BioAssay AID1250

Experiment: inhibitors of Bluetongue virus cytopathic effect, confirmation, arbovirus, BSR cells (AID 1250)
Conditions: BSR cells, Bluetongue virus CPE, ATP luminescence, 72 h; at 20 µM (top of the series)
quantity.name: CPE inhibition (%)
Give the value, in units of %, as a plain number.

- O=C(Nc1nnc(SCc2ccc(F)cc2)s1)c1ccc2c(c1)C(=O)N(c1ccccc1Cl)C2=O: 20.2
- O=C(Nn1c(SCc2cccc([N+](=O)[O-])c2)nc2ccccc2c1=O)c1ccccc1: 29.8
- CCC(C)Sc1nc2c(c(=O)[nH]1)C(c1cccs1)C1=C(CCCC1=O)N2 (stereo not given): 10.1
- COc1ccc(C)cc1NC(=O)C1COc2ccccc2O1 (stereo not given): 11.1

Next compound, CPE inhibition to be filled in.
// CPE inhibition lookup, compound = COc1ccc(CN(C(=O)CSc2nnc(-c3ccc(F)cc3)o2)c2ccc(F)cc2)cc1 , result: 21.3

----------
Assay: inhibitors of Bluetongue virus cytopathic effect, confirmation, arbovirus, BSR cells (AID 1250)
Settings: BSR cells, Bluetongue virus CPE, ATP luminescence, 72 h; at 20 µM (top of the series)
quantity.name: CPE inhibition (%)
Give the value, in units of %, as a plain number.

• O=C(Nc1nc(-c2ccccc2)ns1)c1cccs1 = 15.2
• C/C=C/c1ccc(OCCCCOc2ccccc2C(C)=O)c(OC)c1 = 11.9
• COc1cccc(C(=O)Nc2cccc(C(=O)NC3=NN(c4c(Cl)cc(Cl)cc4Cl)C(=O)C3)c2)c1 = 18.8

Next compound, CPE inhibition to be filled in.
// CPE inhibition lookup, compound = CC(C)CC1=NN2C(=N)/C(=C\c3coc4ccccc4c3=O)C(=O)N=C2S1 , result: 13.5

----------
In this section, each of the molecules is paired with its reported CPE inhibition.
Experiment: inhibitors of Bluetongue virus cytopathic effect, confirmation, arbovirus, BSR cells (AID 1250)
Conditions: BSR cells, Bluetongue virus CPE, ATP luminescence, 72 h; at 20 µM (top of the series)
Activity calls are given as the source filed them.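 How the source made its calls: active means inhibition of at least 30% at one or more tested concentrations; inactive means inhibition below 30% at every dose.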

• CCOc1cccc(C(=O)Nc2ccccc2N2CCN(C(=O)C(C)C)CC2)c1 = 9.61% (inactive)
• COC(=O)c1ccccc1NC(=O)CN1CCC(NC(=O)c2ccc(C)cc2)CC1 = 21.3% (inactive)
• COCCCNc1nc(-c2ccncc2)nc2ccccc12 = 7.45% (inactive)
• O=C(NC(=S)NCCC1=CCCCC1)c1ccccc1Br = 28.5% (inactive)
• O=[N+]([O-])c1cccc(/C=N\N=C2c3ccccc3-c3ccccc32)c1O = 22.2% (inactive)

// CPE inhibition lookup, molecule = CC(C)(C)c1ccc(N/N=C(\C#N)S(=O)(=O)C(C)(C)C)cc1 , result: 23.9% (inactive)

// CPE inhibition lookup, molecule = CC(C)(C)C1CCc2c(sc(NC(=O)C3CC=CCC3C(=O)O)c2C#N)C1 (stereo not drawn) , result: 26.8% (inactive)

// CPE inhibition lookup, molecule = COc1ccc(C(=O)Nc2ccccc2C(=O)O)cc1Cl , result: 24.1% (inactive)

// CPE inhibition lookup, molecule = Oc1ccccc1CNCCCNCc1ccccc1O , result: 20.8% (inactive)

// CPE inhibition lookup, molecule = O=C(Nc1ccccc1C(=O)O)c1ccc(Br)c(S(=O)(=O)NCc2ccccc2)c1 , result: 21.6% (inactive)

// CPE inhibition lookup, molecule = COc1ccc2nc(NC(=O)C3=NN(c4ccccc4)C(=O)CC3)sc2c1 , result: -2.13% (inactive)

// CPE inhibition lookup, molecule = C=CCN(C(=O)c1cccc(N2C(=O)C3CC=CC(C)C3C2=O)c1)c1ccccc1 (stereo not drawn) , result: 8.5% (inactive)

// CPE inhibition lookup, molecule = Cc1ccc(S(=O)(=O)N2CCN(Cc3cc(C(C)C)ccc3O)CC2)cc1 , result: 15.9% (inactive)

// CPE inhibition lookup, molecule = CCSc1nc2c(sc3nc(C)cc(C)c32)c(=O)[nH]1 , result: 18% (inactive)

// CPE inhibition lookup, molecule = O=C(N/N=C/c1c(O)n(CCc2ccccc2)c(=O)[nH]c1=O)c1ccncc1 , result: 7.83% (inactive)

// CPE inhibition lookup, molecule = O=c1[nH]n2c(=O)c3c([nH]c2c1N=Nc1cccc(Cl)c1)CCC3 , result: 16.8% (inactive)

// CPE inhibition lookup, molecule = COc1ccc(OC)c(NC(=O)c2cc(-c3ccc(C)cc3O)n[nH]2)c1 , result: 9.4% (inactive)
